- Assay details: solubility in water
- Assay type: physicochemical
Reported property: solubility
In your response, the unit should come after the numeric value.

Per the record, CCCc1c(OCc2cccn3c(=O)c(-c4nnn[nH]4)cnc23)ccc(C(C)=O)c1O [AS-35] has solubility of 0.4 µg/mL

Where do these numbers come from? They come from patent EP0403301B1.
